- System: SF-295 CNS
- METHOD_DESCRIPTION: NCI tumour cell line growth inhibition, 48 h
MEASURED_METRIC: TGI

INSERT INTO assay_data (molecule, tested_system, result) VALUES
  ('[N-]=[N+]=Nc1cc(=O)[nH]c2ccccc12', 'SF-295 CNS', '> 100 µM'),
  ('CCO/C=C\C12CCCC1NC(c1ccccc1)(c1ccccc1)O2 (stereo unspecified)', 'SF-295 CNS', '> 100 µM');

For the next question, use this molecule.
For O=C(NC1CCC[C@H]1OC(=O)c1ccccc1)c1ccccc1 (stereo partly specified) the molecule record lists TGI as > 100 µM
